Origin of values: PubChem BioAssay AID1963869

Test system: KRAS patient-derived spheroids with HUVEC/MSC, viability
Experiment: Anticancer human tumor 323965-272-R-J2-PDC patient-derived pancreatic carcinoma cell line growth inhibition [KRAS2]
Conditions: second compound 0.316 µM; first compound 1 µM; hits give low values

{"columns": ["molecule", "viability, T/C (%)"],
 "data": [
  ["COC(=O)c1ccc2c(C(=Nc3ccc(N(C)C(=O)CN4CCN(C)CC4)cc3)c3ccccc3)c(O)[nH]c2c1 + C=CC(=O)N1CCN(c2nc(=O)n(-c3c(C)ccnc3C(C)C)c3nc(-c4c(O)cccc4F)c(F)cc23)C(C)C1", 46.8],
  ["O=C(c1cc(Cc2n[nH]c(=O)c3ccccc23)ccc1F)N1CCN(C(=O)C2CC2)CC1 + CNCc1ccccc1-c1csc(C(C)Nc2nc(C)nc3cc(OC)c(OC)cc23)c1", 89.7],
  ["Cn1nccc1Nc1nccc(-c2cc3c(s2)C(C)(C)N(CCN2CCOCC2)C3=O)n1 + COc1cc2nc(C)nc(NC(C)c3cc(N)cc(C(F)(F)F)c3)c2cc1OC1CCOC1", 34.8],
  ["CC1OCC2(CCN(c3cnc(Sc4ccnc(N)c4Cl)c(N)n3)CC2)C1N (stereo not given) + C=CC(=O)N1CCN(c2nc(=O)n(-c3c(C)ccnc3C(C)C)c3nc(-c4c(O)cccc4F)c(F)cc23)C(C)C1", 19],
  ["CC1COCCN1c1cc(-c2ccnn2C)c2ccnc(-c3ccn[nH]3)c2n1 (stereo not given) + CC1OCC2(CCN(c3cnc(Sc4ccnc(N)c4Cl)c(N)n3)CC2)C1N", 10.5],
  ["CC(C)NCC(C(=O)N1CCN(c2ncnc3c2C(C)CC3O)CC1)c1ccc(Cl)cc1 (stereo not given) + COc1cc2nc(C)nc(NC(C)c3cc(N)cc(C(F)(F)F)c3)c2cc1OC1CCOC1", 42.2],
  ["Cn1nccc1Nc1nccc(-c2cc3c(s2)C(C)(C)N(CCN2CCOCC2)C3=O)n1 + C=CC(=O)N1CCN(c2nc(=O)n(-c3c(C)ccnc3C(C)C)c3nc(-c4c(O)cccc4F)c(F)cc23)C(C)C1", 46.1],
  ["CC(C)NCC(C(=O)N1CCN(c2ncnc3c2C(C)CC3O)CC1)c1ccc(Cl)cc1 (stereo not given) + C=CC(=O)N1CCN(c2nc(OCC3CCCN3C)nc3c2CCN(c2cccc4cccc(C)c24)C3)CC1CC#N", 31.8],
  ["CC(=O)OC12COC1CC(O)C1(C)C(=O)C(O)C3=C(C)C(OC(=O)C(O)C(NC(=O)OC(C)(C)C)c4ccccc4)CC(O)(C(OC(=O)c4ccccc4)C21)C3(C)C (stereo not given) + CC1OCC2(CCN(c3cnc(Sc4ccnc(N)c4Cl)c(N)n3)CC2)C1N", 23],
  ["CC(=O)OC12COC1CC(O)C1(C)C(=O)C(O)C3=C(C)C(OC(=O)C(O)C(NC(=O)OC(C)(C)C)c4ccccc4)CC(O)(C(OC(=O)c4ccccc4)C21)C3(C)C (stereo not given) + CNCc1ccccc1-c1csc(C(C)Nc2nc(C)nc3cc(OC)c(OC)cc23)c1", 23]
]}

----------
System: KRAS patient-derived spheroids with HUVEC/MSC, viability
Test: Anticancer human tumor 323965-272-R-J2-PDC cell line growth inhibition [KRAS2];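 further: spheroids exposed to agents for 7 days; 100% = DMSO vehicle control viability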
Details: second compound 0.1 µM; first compound 0.316 µM; hits give low values
Measured viability, T/C accompanies every entry in the list below.

{"columns": ["compound", "unit.abbrev", "viability, T/C"],
 "data": [
  ["CC1COCCN1c1cc(-c2ccnn2C)c2ccnc(-c3ccn[nH]3)c2n1 (stereo unspecified) + CC1OCC2(CCN(c3cnc(Sc4ccnc(N)c4Cl)c(N)n3)CC2)C1N", "%", 15],
  ["CC(C)NCC(C(=O)N1CCN(c2ncnc3c2C(C)CC3O)CC1)c1ccc(Cl)cc1 (stereo unspecified) + CC1OCC2(CCN(c3cnc(Sc4ccnc(N)c4Cl)c(N)n3)CC2)C1N", "%", 57.6],
  ["COC(=O)c1ccc2c(C(=Nc3ccc(N(C)C(=O)CN4CCN(C)CC4)cc3)c3ccccc3)c(O)[nH]c2c1 + C=CC(=O)N1CCN(c2nc(OCC3CCCN3C)nc3c2CCN(c2cccc4cccc(C)c24)C3)CC1CC#N", "%", 65.8],
  ["COC(=O)c1ccc2c(C(=Nc3ccc(N(C)C(=O)CN4CCN(C)CC4)cc3)c3ccccc3)c(O)[nH]c2c1 + C=CC(=O)N1CCN(c2nc(=O)n(-c3c(C)ccnc3C(C)C)c3nc(-c4c(O)cccc4F)c(F)cc23)C(C)C1", "%", 53.7],
  ["CCNC(=O)CC1N=C(c2ccc(Cl)cc2)c2cc(OC)ccc2-n2c(C)nnc21 (stereo unspecified) + CNCc1ccccc1-c1csc(C(C)Nc2nc(C)nc3cc(OC)c(OC)cc23)c1", "%", 51.9],
  ["Cn1nccc1Nc1nccc(-c2cc3c(s2)C(C)(C)N(CCN2CCOCC2)C3=O)n1 + COc1cc2nc(C)nc(NC(C)c3cc(N)cc(C(F)(F)F)c3)c2cc1OC1CCOC1", "%", 50.3]
]}
